B1: library; numbered along this chain (parent)
chain: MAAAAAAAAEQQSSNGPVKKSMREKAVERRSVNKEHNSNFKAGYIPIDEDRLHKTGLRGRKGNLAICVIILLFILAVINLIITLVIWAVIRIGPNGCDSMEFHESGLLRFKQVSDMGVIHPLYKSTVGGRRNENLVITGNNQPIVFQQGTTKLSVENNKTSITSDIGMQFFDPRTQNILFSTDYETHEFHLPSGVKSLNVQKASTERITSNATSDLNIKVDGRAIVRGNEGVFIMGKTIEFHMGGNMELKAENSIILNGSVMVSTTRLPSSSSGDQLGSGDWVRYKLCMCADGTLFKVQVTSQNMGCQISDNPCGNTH

Variants of: B1
Protocol Text: SGCB cell-surface expression functional score (HA stain, bin4 vs bin1, normalised to synonymous) (log10 ratio); higher = more cell-surface SGCB (functional)
Measured Quantity: SGCB cell-surface expression functional score (log10)

- Variant Annotation: "L249H"
  Data Value: -1.14
- Variant Annotation: "V220C"
  Data Value: 0.09
- Variant Annotation: "R174K"
  Data Value: 0.08
- Variant Annotation: "E133V"
  Data Value: -0.31
- Variant Annotation: "S271C"
  Data Value: -0.06
- Variant Annotation: "N211A"
  Data Value: -0.33
- Variant Annotation: "I234K"
  Data Value: -1.32
- Variant Annotation: "G167W"
  Data Value: -1.16
- Variant Annotation: "V113E"
  Data Value: -0.5
- Variant Annotation: "G96S"
  Data Value: -1.81
- Variant Annotation: "L179D"
  Data Value: -1.87
- Variant Annotation: "D221Y"
  Data Value: 0.42
- Variant Annotation: "S99M"
  Data Value: 0.21
- Variant Annotation: "N316L"
  Data Value: -0.05
- Variant Annotation: "F40H"
  Data Value: -0.44
- Variant Annotation: "I162C"
  Data Value: -1.23
- Variant Annotation: "Q299L"
  Data Value: -0.23
- Variant Annotation: "I78T"
  Data Value: -0.02
- Variant Annotation: "V18Y"
  Data Value: 0.14
- Variant Annotation: "A26S"
  Data Value: 0.09
- Variant Annotation: "G139R"
  Data Value: -0.98
- Variant Annotation: "V195C"
  Data Value: 0.64
- Variant Annotation: "G222F"
  Data Value: 0.36
- Variant Annotation: "P17L"
  Data Value: -0.13
- Variant Annotation: "A212N"
  Data Value: -0.89
- Variant Annotation: "L153T"
  Data Value: -0.99
- Variant Annotation: "S302N"
  Data Value: -1.18
- Variant Annotation: "G280K"
  Data Value: 0.07
- Variant Annotation: "S273G"
  Data Value: -0.18
- Variant Annotation: "G43P"
  Data Value: 0.76
- Variant Annotation: "P173L"
  Data Value: -0.21
- Variant Annotation: "S270I"
  Data Value: 0.33
- Variant Annotation: "L75R"
  Data Value: -0.32
- Variant Annotation: "K20W"
  Data Value: 0.05
- Variant Annotation: "L57A"
  Data Value: 0.45
- Variant Annotation: "L191P"
  Data Value: -1.47
- Variant Annotation: "S260Q"
  Data Value: -0.24
- Variant Annotation: "G149N"
  Data Value: 0.19
- Variant Annotation: "K41Y"
  Data Value: -0.07
- Variant Annotation: "L277E"
  Data Value: 0.02

Where do the numbers come from? From the supplement of paper PMC10266784.
